The listing below reports pIC50 for compounds tested on Tyrosine-protein kinase Lck (Homo sapiens, UniProt P06239).
Sequence (P06239 whole entry): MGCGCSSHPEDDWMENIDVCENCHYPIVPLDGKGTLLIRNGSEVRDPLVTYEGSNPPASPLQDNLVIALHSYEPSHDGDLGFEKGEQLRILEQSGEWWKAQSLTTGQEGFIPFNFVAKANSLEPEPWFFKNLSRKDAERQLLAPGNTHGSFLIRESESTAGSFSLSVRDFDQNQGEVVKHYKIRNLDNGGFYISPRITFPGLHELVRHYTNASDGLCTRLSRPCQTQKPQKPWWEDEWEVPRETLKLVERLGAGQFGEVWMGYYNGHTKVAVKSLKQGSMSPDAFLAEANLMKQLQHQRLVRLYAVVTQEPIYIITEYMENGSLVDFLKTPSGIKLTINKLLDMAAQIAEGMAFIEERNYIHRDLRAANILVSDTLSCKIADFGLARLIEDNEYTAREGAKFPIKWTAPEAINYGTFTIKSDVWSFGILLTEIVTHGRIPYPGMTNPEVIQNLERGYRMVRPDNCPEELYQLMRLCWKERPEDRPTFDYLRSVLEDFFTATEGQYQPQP
pIC50: −log10 of the molar value.
MEASUREMENT_TYPE: pIC50

[A] Nc1c2c(=O)[nH]c(-c3ccccc3)cc2nn1-c1ccccc1
[B] CN1CCN(c2ccc(-c3cc4c(c(N)nn4C)c(=O)[nH]3)cc2)CC1
## Input Form field 'greater pIC50' accepts A or B ; which applies? API: response body contains the label of the selected item.
## Output A

###

molecular target: Protein kinase C zeta type (Homo sapiens) (UniProt Q05513); assay: Inhibition of PKCz at 30 uM by microfluidic mobility shift assay
Sequence (Q05513 whole entry): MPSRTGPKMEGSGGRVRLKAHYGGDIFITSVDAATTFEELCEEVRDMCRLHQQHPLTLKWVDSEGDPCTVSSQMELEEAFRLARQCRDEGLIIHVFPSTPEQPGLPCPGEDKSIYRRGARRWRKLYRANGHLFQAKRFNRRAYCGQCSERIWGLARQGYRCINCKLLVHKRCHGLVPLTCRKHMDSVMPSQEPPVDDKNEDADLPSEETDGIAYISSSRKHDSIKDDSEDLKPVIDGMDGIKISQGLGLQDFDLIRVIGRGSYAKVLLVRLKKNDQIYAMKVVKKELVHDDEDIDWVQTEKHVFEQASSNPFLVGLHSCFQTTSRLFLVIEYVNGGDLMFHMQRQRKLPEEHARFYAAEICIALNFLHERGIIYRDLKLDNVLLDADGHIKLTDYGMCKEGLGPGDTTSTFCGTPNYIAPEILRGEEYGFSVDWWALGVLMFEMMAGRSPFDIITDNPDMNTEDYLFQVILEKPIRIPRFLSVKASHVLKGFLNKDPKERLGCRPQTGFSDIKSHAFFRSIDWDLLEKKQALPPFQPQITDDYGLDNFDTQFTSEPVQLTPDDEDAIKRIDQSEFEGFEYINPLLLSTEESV
MEASUREMENT_TYPE: inhibition (%)

>>> reported("Cc1cc2c(c(NS(C)(=O)=O)nn2C)c(=O)[nH]1")
27
>>> reported("COc1ccc(-c2cc3nn(-c4ccccc4)c(N)c3c(=O)[nH]2)cc1")
0
>>> reported("Nc1n[nH]c2c3c([nH]c(=O)c12)CCCC3")
-5
>>> reported("CC(=O)Nc1nn(C)c2cc(-c3ccccc3)[nH]c(=O)c12")
28

[I] COCCNc1nc(-c2ccccc2)cc2c1c(N)nn2C
[II] COc1cccc(-c2cc3[nH]nc(N)c3c(=O)[nH]2)c1
## Input Form field 'greater inhibition' accepts I or II ; which applies? API: response body contains the label of the selected item.
## Output I

###

target: Aurora kinase A (Homo sapiens); test: Inhibition of AurA at 30 uM by microfluidic mobility shift assay
MEASUREMENT_TYPE: inhibition (%)

Example compounds with recorded inhibition:
>>> reported("CC(C)(C)c1cc2nn(-c3ccccc3)c(N)c2c(=O)[nH]1")
9
>>> reported("CN1CCN(c2ccc(-c3cc4c(c(N)nn4C)c(=O)[nH]3)cc2)CC1")
52

[I] Cc1cc2nc(N)nc(N)c2c(=O)[nH]1
[II] Cc1cc2[nH]nc(N)c2c(N2CCOCC2)n1
## Input Form field 'greater inhibition' accepts I or II ; which applies? API: response body contains the label of the selected item.
## Output II

[A] COc1ccc(-c2c(C)[nH]c(=O)c3c(N)nn(C)c23)cc1
[B] COc1ccccc1-c1cc2nn(-c3ccccc3)c(N)c2c(=O)[nH]1
## Input Field: lower recorded inhibition (choose A or B ) API: response body contains the label of the selected item.
## Output B
(B: 7%, A: 31%)

[a] Cc1cc2c(c(NS(C)(=O)=O)nn2C)c(=O)[nH]1
[b] Nc1c2c(=O)[nH]c(-c3ccccc3)cc2nn1-c1ccccn1
[c] Cc1[nH]c(=O)c2c(N)n(-c3ccccc3)nc2c1-c1ccccc1
[d] COCCNc1nc(C)cc2c1c(N)nn2C
## Input hey, can you rank those compounds up there by inhibition? biggest number first please A complete answer lists every label in the requested sequence.
## Output b, d, c, a

[A] COc1ccc(-c2cc3[nH]nc(N)c3c(=O)[nH]2)cc1
[B] Cc1cc2c(cn1)c(N)nn2C
## Input Field: lower recorded inhibition (choose A or B ) API: response body contains the label of the selected item.
## Output B

###

target: UniProt:P06241; assay: Inhibition of FYN at 30 uM by microfluidic mobility shift assay
Sequence (P06241 2-537 limits assumed): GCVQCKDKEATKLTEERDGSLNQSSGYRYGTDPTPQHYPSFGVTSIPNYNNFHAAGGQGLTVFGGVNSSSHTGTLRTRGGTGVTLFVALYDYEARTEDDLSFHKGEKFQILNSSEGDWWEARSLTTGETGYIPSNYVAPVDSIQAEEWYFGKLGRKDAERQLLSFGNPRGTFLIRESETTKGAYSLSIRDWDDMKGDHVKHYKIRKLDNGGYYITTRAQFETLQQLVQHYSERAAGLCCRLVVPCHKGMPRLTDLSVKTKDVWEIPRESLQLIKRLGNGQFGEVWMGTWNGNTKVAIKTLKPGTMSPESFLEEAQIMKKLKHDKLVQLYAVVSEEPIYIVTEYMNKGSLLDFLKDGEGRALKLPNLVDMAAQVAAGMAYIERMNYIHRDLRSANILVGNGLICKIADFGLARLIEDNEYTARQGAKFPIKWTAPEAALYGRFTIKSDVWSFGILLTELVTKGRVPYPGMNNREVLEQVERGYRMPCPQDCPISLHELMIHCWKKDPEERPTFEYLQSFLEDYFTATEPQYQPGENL
MEASUREMENT_TYPE: inhibition (%)

>>> reported("Cc1cc2c(c(NC(=O)Nc3ccccc3)nn2C)c(=O)[nH]1")
7
>>> reported("Nc1c2cnc(-c3ccccc3)cc2nn1-c1ccccc1")
13
>>> reported("CN1CCN(c2ccc(-c3cc4c(c(N)nn4C)c(=O)[nH]3)cc2)CC1")
65

[I] CN1CCN(c2ccc(-c3cc4nn(-c5ccccc5)c(N)c4c(=O)[nH]3)cc2)CC1
[II] Cn1nc(N)c2c(=O)[nH]c(-c3ccccc3)cc21
## Input Form field 'greater inhibition' accepts I or II ; which applies? API: response body contains the label of the selected item.
## Output I
(I: 99%, II: 26%)

[1] Cc1cc2nc(-c3ccccc3)nc(N)c2c(=O)[nH]1
[2] Nc1n[nH]c2cc(-c3ccccn3)[nH]c(=O)c12
[3] Cc1cc2c(cn1)c(N)nn2C
## Input hey, can you rank those compounds up there by inhibition? biggest number first please A complete answer lists every label in the requested sequence.
## Output 2, 1, 3
(2: 54%, 1: 32%, 3: 2%)

[P] CN1CCN(c2ccc(-c3cc4[nH]nc(N)c4c(=O)[nH]3)cc2)CC1
[Q] CC(C)(C)c1cc2[nH]nc(N)c2c(=O)[nH]1
[R] COc1ccc(S(=O)(=O)Nc2nn(C)c3cc(C)[nH]c(=O)c23)c(OC)c1
[S] Nc1n[nH]c2cc(CC3CCNCC3)[nH]c(=O)c12
[T] CC(C)(C)c1cc2nn(-c3ccccc3)c(N)c2c(=O)[nH]1
## Input hey, can you rank those compounds up there by inhibition? biggest number first please A complete answer lists every label in the requested sequence.
## Output P, Q, T, R, S

[A] COc1ccc(-c2cc3c(c(N)nn3C)c(=O)[nH]2)cc1
[B] COc1ccc(-c2cc3nn(-c4ccccc4)c(N)c3c(=O)[nH]2)cc1
[C] Cc1cc2[nH]ncc2c(=O)[nH]1
## Input Your job: order these 3 records by inhibition, ascending. A complete answer lists every label in the requested sequence.
## Output C, A, B

###

biological target: Mitogen-activated protein kinase 14 (Homo sapiens); experiment: Inhibition of p38alpha at 30 uM by microfluidic mobility shift assay
Sequence (Q16539 whole entry): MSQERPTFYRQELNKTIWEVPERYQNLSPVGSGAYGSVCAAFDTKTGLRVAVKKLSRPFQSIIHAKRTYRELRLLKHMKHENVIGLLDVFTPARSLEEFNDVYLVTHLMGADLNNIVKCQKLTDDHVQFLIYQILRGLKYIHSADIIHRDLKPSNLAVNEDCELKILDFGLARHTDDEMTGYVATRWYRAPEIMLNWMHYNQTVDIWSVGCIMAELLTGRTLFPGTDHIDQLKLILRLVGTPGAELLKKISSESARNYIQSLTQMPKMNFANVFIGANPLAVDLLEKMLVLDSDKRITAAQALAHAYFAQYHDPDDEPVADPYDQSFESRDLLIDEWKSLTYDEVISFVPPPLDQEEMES
MEASUREMENT_TYPE: inhibition (%)

>>> reported("Cc1cc2nc(N)nc(N)c2c(=O)[nH]1")
-1
>>> reported("Cc1[nH]c(=O)c2c(N)n(-c3ccccc3)nc2c1-c1ccccc1")
78
>>> reported("Nc1c2c(=O)[nH]c(-c3ccccc3)cc2nn1-c1ccccc1")
79
>>> reported("COc1ccc(-c2cc3c(c(N)nn3C)c(=O)[nH]2)cc1")
5

[P] COc1ccc(-c2cc3nn(-c4ccccc4)c(N)c3c(=O)[nH]2)cc1
[Q] COCCNc1nc(-c2ccccc2)cc2c1c(N)nn2C
## Input Field: lower recorded inhibition (choose P or Q ) API: response body contains the label of the selected item.
## Output Q
(Q: 2%, P: 38%)

[a] COc1ccc(-c2cc3[nH]nc(N)c3c(=O)[nH]2)cc1
[b] CN1CCN(c2ccc(-c3cc4nn(-c5ccccc5)c(N)c4c(=O)[nH]3)cc2)CC1
[c] Cc1cc2c(c(N)nn2C)c(=O)[nH]1
[d] Cc1cc2[nH]nc(N)c2c(=O)[nH]1
## Input Your job: order these 4 records by inhibition, ascending. A complete answer lists every label in the requested sequence.
## Output d, a, c, b
(d: -7%, a: 0%, c: 6%, b: 85%)

###

experiment: Aqueous solubility of the compound by HPLC analysis; type: physicochemical; conditions: water
MEASUREMENT_TYPE: solubility (µg/mL)

>>> reported("CC(=O)Nc1nn(C)c2cc(-c3ccccc3)[nH]c(=O)c12")
79
>>> reported("Cc1cc2c(c(N)nn2C)c(=O)[nH]1")
1220

[1] Cn1nc(N)c2cnc(-c3ccccc3)cc21
[2] Cc1cc2nn(-c3ccccc3)c(N)c2c(=O)[nH]1
[3] Cc1cc2[nH]nc(N)c2c(=O)[nH]1
[4] COC(=O)CCc1c(C)[nH]c(=O)c2c(N)nn(C)c12
[5] Nc1n[nH]c2cc(-c3ccccc3)[nH]c(=O)c12
## Input hey, can you rank those compounds up there by solubility? biggest number first please A complete answer lists every label in the requested sequence.
## Output 3, 4, 1, 2, 5
(3: 1640 µg/mL, 4: 469 µg/mL, 1: 259 µg/mL, 2: 69 µg/mL, 5: 24 µg/mL)

[I] Cc1cc2[nH]nc(N)c2c(N2CCCCC2)n1
[II] CN1CCN(c2ccc(-c3cc4c(c(N)nn4C)c(=O)[nH]3)cc2)CC1
## Input Form field 'greater solubility' accepts I or II ; which applies? API: response body contains the label of the selected item.
## Output I

###

biological target: Serine/threonine-protein kinase D2 (Homo sapiens); assay: Inhibition of PKD2 at 30 uM by microfluidic mobility shift assay
MEASUREMENT_TYPE: inhibition (%)

Example compounds with recorded inhibition:
>>> reported("COCCNc1nc(-c2ccccc2)cc2c1c(N)nn2C")
1
>>> reported("Cn1nc(N)c2c(=O)[nH]c(-c3ccccn3)cc21")
17
>>> reported("COc1cccc(-c2cc3[nH]nc(N)c3c(=O)[nH]2)c1")
17
>>> reported("COCCNc1nc(C)cc2c1c(N)nn2C")
4
>>> reported("Cc1cc2c(c(N)nn2C)c(N2CCOCC2)n1")
-4

[a] COc1ccc(-c2cc3[nH]nc(N)c3c(=O)[nH]2)cc1
[b] COC(=O)CCc1c(C)[nH]c(=O)c2c(N)nn(C)c12
[c] CN1CCN(c2ccc(-c3cc4nn(-c5ccccc5)c(N)c4c(=O)[nH]3)cc2)CC1
## Input Your job: order these 3 records by inhibition, ascending. A complete answer lists every label in the requested sequence.
## Output b, c, a
(b: 5%, c: 15%, a: 28%)

[1] Cc1cc2nn(-c3ccccc3)c(N)c2c(N2CCCCC2)n1
[2] COc1cccc(-c2cc3c(c(N)nn3C)c(=O)[nH]2)c1
## Input Field: lower recorded inhibition (choose 1 or 2 ) API: response body contains the label of the selected item.
## Output 1
(1: 5%, 2: 25%)
